Test system: NCI-H460
Assay: Cytotoxicity against human NCI-H460 cells by SRB method
Type: functional, cell-based
attribute.measured: pIC50
Give bare numbers, as −log10 of the molar value.

Find the recorded pIC50 belonging to CC[C@H](C)[C@@H]1NC(=O)[C@@H](Cc2ccccc2)NC(=O)[C@@H]2CSC(=N2)c2csc(n2)-c2csc(n2)-c2csc(n2)[C@@H](C)NC1=O [MARTHIAPEPTIDE A] and report it.
6.33
